assayComment: self-splicing fitness, log relative to wild type (ln ratio); higher = more splicing; Tetrahymena group I intron in knt gene, E. coli kanamycin selection, DiMSum; sequences stand for … in CUCUCU…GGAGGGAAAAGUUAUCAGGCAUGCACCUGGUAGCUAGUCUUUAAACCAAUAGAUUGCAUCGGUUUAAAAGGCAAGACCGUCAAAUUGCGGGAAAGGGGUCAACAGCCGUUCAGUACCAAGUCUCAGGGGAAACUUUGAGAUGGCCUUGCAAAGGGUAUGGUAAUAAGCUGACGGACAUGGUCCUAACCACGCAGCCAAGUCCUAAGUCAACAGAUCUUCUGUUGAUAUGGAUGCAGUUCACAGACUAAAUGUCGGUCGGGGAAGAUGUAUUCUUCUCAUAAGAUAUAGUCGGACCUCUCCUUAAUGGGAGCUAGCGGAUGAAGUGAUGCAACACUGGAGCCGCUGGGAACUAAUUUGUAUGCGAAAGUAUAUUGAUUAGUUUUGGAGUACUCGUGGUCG;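 also: selection with 25 µg/mL kanamycin versus none on LB agar overnight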
testContext: 30 °C
Reported values of self-splicing fitness (ln) for individual entries

| recordSequence | self-splicing fitness (ln) |
| --- | --- |
| GCACAGCAAUAUUACGCAUU | -0.442 |
| CAGGAGCAAUAUUACGCGUG | -3.2 |
| CCGAAGCAAUAUUACGUUGA | -3.76 |
| AGGUAGCAAUAUUACGGACU | 0.0184 |
| GUAAAGCAAUAUUACGUGGC | -3.42 |
| CGUAAGCAAUAUUACGAAUG | -0.363 |
| AUCGAGCAAUAUUACGAACG | -2.49 |
| UAUGAGCAAUAUUACGUGAU | -3.04 |
| UCUAAGCAAUAUUACGGUAC | -3.5 |
| CCAAAGCAAUAUUACGUUCG | -0.496 |
| AUGAAGCAAUAUUACGCGUU | -2.78 |
| CCAUAGCAAUAUUACGAUCU | -3.15 |
| CGCUAGCAAUAUUACGAACU | -0.352 |
| CGUCAGCAAUAUUACGAACU | -0.352 |
| CCCAAGCAAUAUUACGUGCC | -4.01 |
| GUUCAGCAAUAUUACGGGGA | -4.6 |
